Source: patent US6506766B1

- Assayed Target: human progesterone receptor-A [PRA] isoform (Homo sapiens, UniProt P06401)
- Construct: host or cells: insect SF21 cells (baculovirus)
- Sequence (P06401 1-769 isoform P06401-2): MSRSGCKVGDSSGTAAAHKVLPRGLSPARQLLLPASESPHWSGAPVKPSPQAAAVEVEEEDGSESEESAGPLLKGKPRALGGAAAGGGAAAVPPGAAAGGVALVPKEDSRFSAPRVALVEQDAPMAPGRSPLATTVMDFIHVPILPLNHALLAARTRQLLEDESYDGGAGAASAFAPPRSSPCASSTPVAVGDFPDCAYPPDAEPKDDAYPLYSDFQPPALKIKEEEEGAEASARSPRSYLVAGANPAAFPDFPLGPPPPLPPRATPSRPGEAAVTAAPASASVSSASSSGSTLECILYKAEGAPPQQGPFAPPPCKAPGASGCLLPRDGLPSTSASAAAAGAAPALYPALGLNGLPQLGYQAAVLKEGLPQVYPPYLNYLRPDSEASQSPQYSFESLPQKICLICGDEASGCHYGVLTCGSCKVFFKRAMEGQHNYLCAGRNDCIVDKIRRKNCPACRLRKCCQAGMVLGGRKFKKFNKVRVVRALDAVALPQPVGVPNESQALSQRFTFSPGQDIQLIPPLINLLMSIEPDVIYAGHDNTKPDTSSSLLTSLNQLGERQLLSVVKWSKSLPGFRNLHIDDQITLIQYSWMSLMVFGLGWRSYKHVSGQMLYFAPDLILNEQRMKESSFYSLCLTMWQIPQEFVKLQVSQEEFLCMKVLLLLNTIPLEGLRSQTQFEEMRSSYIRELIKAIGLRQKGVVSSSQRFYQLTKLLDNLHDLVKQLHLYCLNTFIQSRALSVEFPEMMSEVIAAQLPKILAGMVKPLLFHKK
- Test Description: Radioligand binding with human progesterone receptor cytosol ([3H]-progesterone competition)
- Run Parameters: PRA cytosol expressed in insect SF21 cells, [3H]Prog ~0.8 nM, 4° C. overnight; Ki by Cheng-Prusoff, KL ~4.5 nM; read-out: Ki (nM) PR
Endpoint: Ki (nM)
State the answer as a number, implicitly in nM.

Look over these answered cases.
Incoming: Record request: Ki value, item "COc1c(O)ccc2c1-c1ccc3c(c1/C(=C/c1ccc(F)cc1)O2)C(C)=CC(C)(C)N3"
Outgoing: 164

Incoming: Now consider "COc1cccc2c1-c1ccc3c(c1C(=Cc1ccccc1Cl)O2)C(C)=CC(C)(C)N3" and answer again.
Outgoing: 1610

Next, consider the following molecule.
Incoming: Record request: Ki value, item "COc1c(O)ccc2c1-c1ccc3c(c1/C(=C/c1cccc(F)c1F)O2)C(C)=CC(C)(C)N3"
Outgoing: 279

* * *

- Assayed Target: human glucocorticoid receptor-α [GRX] isoform (Homo sapiens)
- Construct: host or cells: insect SF21 cells (baculovirus)
- Test Description: Radioligand binding with human glucocorticoid receptor cytosol ([3H]-dexamethasone competition)
- Run Parameters: GRX cytosol expressed in insect SF21 cells, [3H]-Dex ~0.9 nM, 4° C. overnight; Ki by Cheng-Prusoff, KL ~[…]; read-out: Ki (nM) GR
For each record, check the reported Ki: if it is below 7 nM write Condition met, else write Condition not met.

Incoming: I wonder whether "COc1c(O)ccc2c1-c1ccc3c(c1[C@@H]([C@@H]1C=CCC1)O2)C(C)=CC(C)(C)N3" has Ki below 7 nM. Can you tell?
Outgoing: Condition not met

* * *

- Assayed Target: human progesterone receptor-A [PRA] isoform (Homo sapiens)
- Construct: host or cells: insect SF21 cells (baculovirus)
- Test Description: Radioligand binding with human progesterone receptor cytosol ([3H]-progesterone competition)
- Run Parameters: PRA cytosol expressed in insect SF21 cells, [3H]Prog ~0.8 nM, 4° C. overnight; Ki by Cheng-Prusoff, KL ~4.5 nM; read-out: Ki (nM) PR
Endpoint: log10(Ki) (log10 of the value in nM)
Record value = log10 of Ki given in nM.

Look over these answered cases.
Incoming: log10(Ki) of COc1c(Br)cc(Br)c2c1-c1ccc3c(c1C(C1C=CCCC1)O2)C(C)=CC(C)(C)N3 (centres unmarked) on human progesterone receptor-A [PRA] isoform (Homo sapiens)?
Outgoing: 2.00

Incoming: Now consider COc1cccc2c1-c1ccc3c(c1C([C@@H]1C=C(CSC)CCC1)O2)C(C)=CC(C)(C)N3 (stereo in doubt) and answer again.
Outgoing: 3.75

Incoming: Now consider COC(=O)CC1Oc2ccc(O)c(OC)c2-c2ccc3c(c21)C(C)=CC(C)(C)N3 (centres unmarked) and answer again.
Outgoing: 2.72

Incoming: Now consider "COc1c(OC(=O)CCC(=O)N(C)C)ccc2c1-c1ccc3c(c1[C@H]([C@@H]1C=CCC1)O2)C(C)=CC(C)(C)N3" and answer again.
Outgoing: 2.52

Next, consider the following molecule.
Incoming: log10(Ki) of "COc1cccc2c1-c1ccc3c(c1[C@H]([C@H]1C=CCCC1)O2)C(C)=CC(C)(C)N3" on human progesterone receptor-A [PRA] isoform (Homo sapiens)?
Outgoing: 2.69

* * *

- Assayed Target: human glucocorticoid receptor-α [GRX] isoform (Homo sapiens)
- Construct: host or cells: insect SF21 cells (baculovirus)
- Test Description: Radioligand binding with human glucocorticoid receptor cytosol ([3H]-dexamethasone competition)
- Run Parameters: GRX cytosol expressed in insect SF21 cells, [3H]-Dex ~0.9 nM, 4° C. overnight; Ki by Cheng-Prusoff, KL ~[…]; read-out: Ki (nM) GR
Endpoint: Ki (nM)
State the answer as a number, implicitly in nM.

Incoming: Record request: Ki value, item COc1cccc2c1-c1ccc3c(c1C(CC=C1CCCCC1)O2)C(C)=CC(C)(C)N3 (stereo not shown)
Outgoing: 46

Incoming: Now consider COc1cccc2c1-c1ccc3c(c1C(C/C=C/COC(=O)N(C)C)O2)C(C)=CC(C)(C)N3 (stereo not shown) and answer again.
Outgoing: 1.1

Incoming: Now consider CCCc1ccc(C2Oc3cccc(OC)c3-c3ccc4c(c32)C(C)=CC(C)(C)N4)s1 (stereo not shown) and answer again.
Outgoing: 9.5

Incoming: Now consider CC1=CC(C)(C)Nc2ccc3c(c21)C(c1ccc(F)c(F)c1)Oc1ccc(O)c(Cl)c1-3 (stereo not shown) and answer again.
Outgoing: 2.6

Incoming: Now consider COc1cccc2c1-c1ccc3c(c1C(c1cccc(OCCN4CCCCC4)c1)O2)C(C)=CC(C)(C)N3 (stereo not shown) and answer again.
Outgoing: 275

Further cases:
Incoming: Record request: Ki value, item C=CCC1Oc2ccc(OC)c(OC)c2-c2ccc3c(c21)C(C)=CC(C)(C)N3 (stereo not shown) [Example 290]
Outgoing: 12.1

Incoming: Now consider C=CCC1Oc2cccc(SC)c2-c2ccc3c(c21)C(C)=CC(C)(C)N3 (stereo not shown) [Example 343] and answer again.
Outgoing: 5.2

* * *

As shown below, each of these molecules has a reported Ki value.
- Assayed Target: human glucocorticoid receptor-α [GRX] isoform (Homo sapiens, UniProt P04150)
- Construct: host or cells: insect SF21 cells (baculovirus)
- Sequence (P04150 whole entry, canonical isoform): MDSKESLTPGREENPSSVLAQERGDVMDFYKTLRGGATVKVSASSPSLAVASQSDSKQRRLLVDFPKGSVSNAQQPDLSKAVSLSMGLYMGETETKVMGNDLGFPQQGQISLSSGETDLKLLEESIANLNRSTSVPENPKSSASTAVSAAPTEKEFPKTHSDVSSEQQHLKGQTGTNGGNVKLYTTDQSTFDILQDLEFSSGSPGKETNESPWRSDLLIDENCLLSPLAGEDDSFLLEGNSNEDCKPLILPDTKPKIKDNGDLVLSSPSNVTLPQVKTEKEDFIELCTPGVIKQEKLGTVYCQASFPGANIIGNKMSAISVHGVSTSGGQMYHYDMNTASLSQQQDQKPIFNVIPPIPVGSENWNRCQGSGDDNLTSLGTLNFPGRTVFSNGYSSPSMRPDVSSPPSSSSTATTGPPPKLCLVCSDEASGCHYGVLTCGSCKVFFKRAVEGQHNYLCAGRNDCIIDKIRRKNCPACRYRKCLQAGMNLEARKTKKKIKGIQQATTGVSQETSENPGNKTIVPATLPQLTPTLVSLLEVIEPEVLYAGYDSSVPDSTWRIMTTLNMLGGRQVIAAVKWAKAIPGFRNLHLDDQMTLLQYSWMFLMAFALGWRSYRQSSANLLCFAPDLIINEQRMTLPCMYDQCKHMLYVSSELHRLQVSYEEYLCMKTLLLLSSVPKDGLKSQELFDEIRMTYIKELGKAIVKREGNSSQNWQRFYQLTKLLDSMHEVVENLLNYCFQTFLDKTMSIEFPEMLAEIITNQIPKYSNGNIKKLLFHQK
- Test Description: Radioligand binding with human glucocorticoid receptor cytosol ([3H]-dexamethasone competition)
- Run Parameters: GRX cytosol expressed in insect SF21 cells, [3H]-Dex ~0.9 nM, 4° C. overnight; Ki by Cheng-Prusoff, KL ~[…]; read-out: Ki (nM) GR
State the answer as a number, implicitly in nM.

Look over these answered cases.
Incoming: Record request: Ki value, item C=CCC1Oc2cccc(C(=O)OC)c2-c2ccc3c(c21)C(C)=CC(C)(C)N3 (stereo not shown)
Outgoing: 7

Incoming: Now consider "CC1=CC(C)(C)Nc2ccc3c(c21)[C@H]([C@H]1C=CCC1)Oc1ccc(O)c(Cl)c1-3" and answer again.
Outgoing: 0.47

Incoming: Now consider COc1cccc2c1-c1ccc3c(c1C(CN)O2)C(C)=CC(C)(C)N3 (stereo not shown) [Example 206A] and answer again.
Outgoing: 4190

Further cases:
Incoming: Record request: Ki value, item COc1cccc2c1-c1ccc3c(c1C(CC(=O)c1ccccc1)O2)C(C)=CC(C)(C)N3 (stereo not shown)
Outgoing: 174

* * *

- Assayed Target: human glucocorticoid receptor-α [GRX] isoform (Homo sapiens)
- Construct: host or cells: insect SF21 cells (baculovirus)
- Test Description: Radioligand binding with human glucocorticoid receptor cytosol ([3H]-dexamethasone competition)
- Run Parameters: GRX cytosol expressed in insect SF21 cells, [3H]-Dex ~0.9 nM, 4° C. overnight; Ki by Cheng-Prusoff, KL ~[…]; read-out: Ki (nM) GR
As shown below, each of these molecules has a reported Ki value.
State the answer as a number, implicitly in nM.

Incoming: Record request: Ki value, item COc1c(O)ccc2c1-c1ccc3c(c1[C@@H](C1CCCC1)O2)C(C)=CC(C)(C)N3 [Example 265]
Outgoing: 767

Further cases:
Incoming: Record request: Ki value, item COc1cccc2c1-c1ccc3c(c1C(c1cccnc1)O2)C(C)=CC(C)(C)N3 (centres unmarked) [Example 214]
Outgoing: 5.7

Incoming: Now consider COCCNC(=O)OCCC1Oc2cccc(OC)c2-c2ccc3c(c21)C(C)=CC(C)(C)N3 (centres unmarked) [Example 202] and answer again.
Outgoing: 134
